test: MHET released, HPLC; higher = more MHET released; extreme values may be limits of the assay; conditions: PET substrate: cryPow; 70 °C; pH 6.5; 24 h
MHET released reference
Hi! Could you send only the number? It should be in mM, unit omitted.

### Prompt Endpoint output: MHET released of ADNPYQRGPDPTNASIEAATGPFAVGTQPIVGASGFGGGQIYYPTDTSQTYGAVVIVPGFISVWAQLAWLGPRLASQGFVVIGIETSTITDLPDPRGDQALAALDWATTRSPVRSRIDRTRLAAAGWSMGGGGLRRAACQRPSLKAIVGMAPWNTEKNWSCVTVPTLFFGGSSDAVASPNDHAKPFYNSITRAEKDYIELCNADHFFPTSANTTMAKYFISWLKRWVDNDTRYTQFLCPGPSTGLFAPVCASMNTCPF [CaPETaseM9] . Value?
### Response 0.0346

Turning now to a further sequence:
### Prompt GET /values?readout=MHET released&item= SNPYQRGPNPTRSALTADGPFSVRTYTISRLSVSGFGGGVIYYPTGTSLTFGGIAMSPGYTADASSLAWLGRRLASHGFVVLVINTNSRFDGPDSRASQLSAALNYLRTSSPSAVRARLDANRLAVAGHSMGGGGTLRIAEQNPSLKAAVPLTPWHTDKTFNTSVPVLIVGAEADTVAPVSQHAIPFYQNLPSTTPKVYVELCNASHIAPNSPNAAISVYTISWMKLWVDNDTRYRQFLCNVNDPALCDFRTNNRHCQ [LCC-ICCG RIP]
### Response 0.201

* * *

test: PET hydrolysis product formed (TPA+MHET+BHET, UV-Vis) per mg enzyme (mmol/mg enzyme); higher = more PET depolymerisation activity; extreme values may be limits of the assay; details: PET substrate: aFilm; 60 °C; pH 7.5; 24 h
We use 1 as the dividing line for PET hydrolysis product formed: on or above the line is Satisfied, below is Not satisfied.

Previously resolved entries follow.
### Prompt Form field: PET hydrolysis product formed at least 1? Entry: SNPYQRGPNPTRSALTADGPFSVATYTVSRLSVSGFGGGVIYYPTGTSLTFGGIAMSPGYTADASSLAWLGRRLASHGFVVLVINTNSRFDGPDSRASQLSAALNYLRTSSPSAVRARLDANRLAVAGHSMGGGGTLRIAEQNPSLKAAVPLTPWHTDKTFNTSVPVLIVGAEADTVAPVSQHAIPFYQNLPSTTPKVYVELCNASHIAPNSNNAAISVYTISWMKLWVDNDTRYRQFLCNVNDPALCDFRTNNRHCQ [LCC-ICCG]
### Response Satisfied

### Prompt Another sequence to check: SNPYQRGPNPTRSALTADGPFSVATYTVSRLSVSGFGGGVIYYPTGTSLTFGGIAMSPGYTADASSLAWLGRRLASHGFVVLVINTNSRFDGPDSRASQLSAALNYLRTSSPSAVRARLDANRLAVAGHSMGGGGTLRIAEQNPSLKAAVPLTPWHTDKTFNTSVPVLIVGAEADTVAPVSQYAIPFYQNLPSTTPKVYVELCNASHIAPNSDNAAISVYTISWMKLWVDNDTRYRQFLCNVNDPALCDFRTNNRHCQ [LCC-A2]
### Response Satisfied

### Prompt Note, next up: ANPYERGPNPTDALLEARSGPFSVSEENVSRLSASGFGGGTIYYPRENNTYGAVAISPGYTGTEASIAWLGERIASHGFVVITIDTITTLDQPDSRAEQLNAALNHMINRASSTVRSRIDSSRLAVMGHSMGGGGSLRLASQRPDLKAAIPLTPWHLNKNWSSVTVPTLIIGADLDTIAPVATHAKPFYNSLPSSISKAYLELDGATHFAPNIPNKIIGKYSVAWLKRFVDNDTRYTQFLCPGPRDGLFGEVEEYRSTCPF [TfCut2]
### Response Not satisfied

### Prompt Also need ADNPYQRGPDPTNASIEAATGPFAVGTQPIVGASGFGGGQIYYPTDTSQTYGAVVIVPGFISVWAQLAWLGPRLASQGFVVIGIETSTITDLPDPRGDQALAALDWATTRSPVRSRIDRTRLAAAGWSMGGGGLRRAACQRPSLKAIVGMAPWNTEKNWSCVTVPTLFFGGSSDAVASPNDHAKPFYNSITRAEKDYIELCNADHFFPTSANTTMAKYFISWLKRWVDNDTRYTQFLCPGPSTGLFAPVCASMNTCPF [CaPETaseM9] , thanks.
### Response Not satisfied

### Prompt Now consider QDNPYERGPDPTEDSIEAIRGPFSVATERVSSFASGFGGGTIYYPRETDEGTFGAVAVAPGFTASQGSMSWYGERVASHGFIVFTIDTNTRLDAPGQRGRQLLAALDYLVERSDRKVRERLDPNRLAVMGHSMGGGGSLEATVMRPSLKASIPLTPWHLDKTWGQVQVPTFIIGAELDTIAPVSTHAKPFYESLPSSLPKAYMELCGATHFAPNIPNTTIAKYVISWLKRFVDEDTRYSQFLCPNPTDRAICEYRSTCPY [Cut190*SS] .
### Response Not satisfied

Consider now this further sequence.
### Prompt Check this sequence for PET hydrolysis product formed at or above 1: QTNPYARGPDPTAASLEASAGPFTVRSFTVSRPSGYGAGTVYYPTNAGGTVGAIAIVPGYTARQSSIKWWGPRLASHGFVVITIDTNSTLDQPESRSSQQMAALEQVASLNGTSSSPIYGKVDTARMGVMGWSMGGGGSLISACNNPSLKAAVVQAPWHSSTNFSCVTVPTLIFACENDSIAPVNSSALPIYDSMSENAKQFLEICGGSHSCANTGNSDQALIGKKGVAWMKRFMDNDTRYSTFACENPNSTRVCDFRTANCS [Z1-PETase]
### Response Not satisfied

* * *

assay: terephthalic acid (TPA) released, HPLC; higher = more TPA released; extreme values may be limits of the assay; settings: PET substrate: cryPow; 60 °C; pH 7.5; 24 h
property label: terephthalic acid (mM)
Write down the numeric answer in mM and omit the unit.

Examples with their reported terephthalic acid follow.
### Prompt Recorded terephthalic acid for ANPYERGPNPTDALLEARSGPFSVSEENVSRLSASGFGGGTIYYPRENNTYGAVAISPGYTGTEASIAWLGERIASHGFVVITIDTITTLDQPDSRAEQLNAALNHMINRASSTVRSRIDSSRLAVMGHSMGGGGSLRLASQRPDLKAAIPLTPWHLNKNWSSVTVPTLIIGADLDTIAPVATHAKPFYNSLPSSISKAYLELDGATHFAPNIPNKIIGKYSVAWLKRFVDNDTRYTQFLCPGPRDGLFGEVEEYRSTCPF [TfCut2] , please?
### Response 0.0408

### Prompt Repeat with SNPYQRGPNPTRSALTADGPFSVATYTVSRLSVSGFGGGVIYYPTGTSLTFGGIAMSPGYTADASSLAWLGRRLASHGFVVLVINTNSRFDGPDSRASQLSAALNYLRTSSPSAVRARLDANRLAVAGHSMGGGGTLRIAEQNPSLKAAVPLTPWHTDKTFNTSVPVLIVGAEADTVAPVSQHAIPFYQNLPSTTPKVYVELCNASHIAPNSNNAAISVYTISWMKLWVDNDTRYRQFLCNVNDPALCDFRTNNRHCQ [LCC-ICCG]
### Response 0.308

Okay, now this sequence:
### Prompt Given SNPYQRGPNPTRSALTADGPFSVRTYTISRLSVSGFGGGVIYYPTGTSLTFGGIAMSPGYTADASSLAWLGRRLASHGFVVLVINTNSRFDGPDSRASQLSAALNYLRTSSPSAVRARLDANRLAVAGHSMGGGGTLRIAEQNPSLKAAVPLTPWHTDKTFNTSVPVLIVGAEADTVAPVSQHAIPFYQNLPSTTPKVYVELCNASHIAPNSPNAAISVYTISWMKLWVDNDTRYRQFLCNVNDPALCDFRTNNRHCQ [LCC-ICCG RIP] , state its recorded terephthalic acid.
### Response 0.147

* * *

assay: MHET released, HPLC; higher = more MHET released; extreme values may be limits of the assay; settings: PET substrate: cryPow; 70 °C; pH 8.5; 24 h
# MHET released >= 0.2 mM gives T, anything below gives F

These recorded examples may help you get a feel for the data.
### Prompt Item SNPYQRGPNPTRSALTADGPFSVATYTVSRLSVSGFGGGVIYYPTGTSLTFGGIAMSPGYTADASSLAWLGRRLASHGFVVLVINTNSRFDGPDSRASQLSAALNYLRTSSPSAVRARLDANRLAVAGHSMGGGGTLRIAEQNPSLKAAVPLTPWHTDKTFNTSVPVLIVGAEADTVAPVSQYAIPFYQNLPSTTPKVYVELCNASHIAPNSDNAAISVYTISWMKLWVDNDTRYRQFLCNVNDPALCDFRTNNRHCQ [LCC-A2] with MHET released of 0.2 mM or above?
### Response T

### Prompt Now give it for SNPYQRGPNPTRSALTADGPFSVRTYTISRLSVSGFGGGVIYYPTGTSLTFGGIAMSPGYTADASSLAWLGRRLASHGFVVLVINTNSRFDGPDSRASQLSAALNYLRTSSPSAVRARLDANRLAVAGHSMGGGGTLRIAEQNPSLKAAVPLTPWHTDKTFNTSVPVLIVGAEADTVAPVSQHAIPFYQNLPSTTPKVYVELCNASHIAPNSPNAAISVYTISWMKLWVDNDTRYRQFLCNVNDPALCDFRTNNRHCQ [LCC-ICCG RIP] too.
### Response F

### Prompt Try this sequence too: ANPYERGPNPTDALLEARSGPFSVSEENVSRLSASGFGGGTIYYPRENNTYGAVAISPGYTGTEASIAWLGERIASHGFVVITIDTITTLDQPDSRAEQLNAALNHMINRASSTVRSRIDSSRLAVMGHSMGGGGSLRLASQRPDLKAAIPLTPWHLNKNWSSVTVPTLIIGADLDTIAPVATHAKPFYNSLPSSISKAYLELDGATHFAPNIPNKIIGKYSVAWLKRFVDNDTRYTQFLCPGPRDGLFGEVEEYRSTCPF [TfCut2]
### Response F

### Prompt Continue with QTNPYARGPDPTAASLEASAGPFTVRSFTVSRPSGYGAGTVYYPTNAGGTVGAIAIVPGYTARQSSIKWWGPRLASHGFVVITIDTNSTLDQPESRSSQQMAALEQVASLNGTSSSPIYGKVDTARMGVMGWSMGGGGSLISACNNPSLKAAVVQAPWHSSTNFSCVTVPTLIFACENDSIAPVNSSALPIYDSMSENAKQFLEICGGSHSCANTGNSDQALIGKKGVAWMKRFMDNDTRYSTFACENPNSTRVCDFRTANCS [Z1-PETase]
### Response F

### Prompt Entry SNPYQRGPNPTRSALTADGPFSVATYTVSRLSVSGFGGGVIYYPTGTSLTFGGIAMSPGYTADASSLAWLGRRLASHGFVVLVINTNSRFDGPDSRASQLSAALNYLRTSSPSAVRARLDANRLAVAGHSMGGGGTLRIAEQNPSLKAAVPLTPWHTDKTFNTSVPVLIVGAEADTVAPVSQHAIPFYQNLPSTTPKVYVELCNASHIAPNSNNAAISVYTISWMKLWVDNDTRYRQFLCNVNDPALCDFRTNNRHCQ [LCC-ICCG] please
### Response F

### Prompt Moving on to the next sequence: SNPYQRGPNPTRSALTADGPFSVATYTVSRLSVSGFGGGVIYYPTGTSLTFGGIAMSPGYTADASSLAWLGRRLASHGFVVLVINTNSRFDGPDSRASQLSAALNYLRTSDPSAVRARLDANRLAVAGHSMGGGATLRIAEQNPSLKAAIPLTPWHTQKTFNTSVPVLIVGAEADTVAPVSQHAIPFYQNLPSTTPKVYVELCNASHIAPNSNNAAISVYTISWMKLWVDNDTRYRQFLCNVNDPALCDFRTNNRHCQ [LCC-ICCG DAQI]
### Response F

### Prompt Moving on to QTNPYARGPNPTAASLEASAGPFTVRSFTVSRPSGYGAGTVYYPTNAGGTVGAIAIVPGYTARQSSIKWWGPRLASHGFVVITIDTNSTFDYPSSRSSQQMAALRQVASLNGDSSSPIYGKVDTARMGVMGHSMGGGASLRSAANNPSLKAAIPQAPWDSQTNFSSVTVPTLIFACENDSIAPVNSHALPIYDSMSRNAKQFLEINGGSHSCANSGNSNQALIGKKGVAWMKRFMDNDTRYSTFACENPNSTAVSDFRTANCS [DuraPETase]
### Response F

Continuing:
### Prompt Reported MHET released at or above 0.2 mM? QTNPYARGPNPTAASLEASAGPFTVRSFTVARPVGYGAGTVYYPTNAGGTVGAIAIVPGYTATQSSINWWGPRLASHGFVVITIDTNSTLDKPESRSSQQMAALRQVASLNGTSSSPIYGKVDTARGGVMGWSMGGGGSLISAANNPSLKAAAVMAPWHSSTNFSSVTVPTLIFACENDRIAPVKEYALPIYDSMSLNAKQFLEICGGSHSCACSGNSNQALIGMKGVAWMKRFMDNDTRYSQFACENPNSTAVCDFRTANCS [HotPETase]
### Response T
